- Test system: HS 578T breast
- EXPERIMENT SUMMARY: NCI tumour cell line growth inhibition, 48 h; in the data active = GI50 below about 0.43 µM; inactive = the rest
Result category, one only: Y for active, N for inactive

Check out these entries, answers already filled in.
{"columns": ["COMPOUND", "LABEL"],
 "data": [
  ["CC(=O)[O][Hg][c]1c(C)c(C)c(C)c(C)c1C", "N"],
  ["NCCCCn1c2c(c3ccccc3c1=O)C(=O)c1ccccc1-2", "N"],
  ["COc1cc(-c2c(C#N)c(N)n3c(nc4ccccc43)c2C#N)cc(Br)c1OC", "N"],
  ["CCCCC/C=C/C/C=C/CCCCCCCC1=NC(C)(C)CN1C(C)C", "N"],
  ["COc1cc2c3c(n(CCCBr)c(=O)c2cc1OC)-c1ccc(NC(C)=O)cc1C3=O", "N"]
]}

Exercise: Could you check what this test reported for COc1ccc(C2CC(=O)c3c(OC)cc(OC)cc3O2)cc1 (stereo not drawn) ?
Solution: N

Exercise: Could you check what this test reported for `CCCNC(=S)N/N=C(\C)c1ccccn1` ?
Solution: N

Exercise: Could you check what this test reported for COc1ccc(OC(=O)O[C@H]2[C@H](O[C@H]3[C@@H](O)COC(O[C@H]4C[C@H]5[C@@H]6CC=C7C[C@@H](O)CC[C@]7(C)[C@H]6CC[C@]5(C)[C@H]4[C@H](C)C(=O)CCC(C)C)[C@@H]3OC(C)=O)OC[C@@H](O)[C@@H]2O)cc1 (stereo partly drawn) ?
Solution: Y

====

- Test system: UACC-62 melanoma
- EXPERIMENT SUMMARY: NCI tumour cell line growth inhibition, 48 h; in the data active = GI50 below about 0.43 µM; inactive = the rest
Result category, one only: yes for active, no for inactive

Check out these entries, answers already filled in.
{"columns": ["COMPOUND", "LABEL"],
 "data": [
  ["CC(=O)[O][Hg][c]1c(C)c(C)c(C)c(C)c1C", "no"],
  ["COc1ccc(C2CC(=O)c3c(O)c(OC)c(OC)c(OC)c3O2)c(O)c1 (stereo not drawn)", "yes"]
]}

Note: attention shifts to another entry.
Exercise: Could you check what this test reported for `CC(C)=[CH][Sb]([Br])([CH]=C(C)C)([CH]=C(C)C)[CH]=C(C)C` ?
Solution: no

====

- System: M14 melanoma
- EXPERIMENT SUMMARY: NCI tumour cell line growth inhibition, 48 h
ASSAY READOUT: TGI

Consider the worked cases shown below.
{"columns": ["COMPOUND", "VALUE OBSERVED"],
 "data": [
  ["COc1cc(C2c3cc4c(cc3[C@H](OCCN(C)C)[C@@H]3COC(=O)C23)OCO4)cc(OC)c1O (stereo partly specified)", "2.58 µM"],
  ["CC(=O)[O][Hg][c]1c(C)c(C)c(C)c(C)c1C", "2.65 µM"],
  ["C=C1C(=O)O[C@H]2[C@H]1CC/C(COC(=O)/C=C\\C(=O)NCc1ccc(Cn3c(=O)sn(-c4ccc(C#N)cc4)c3=O)cc1)=C\\CC[C@@]1(C)O[C@@H]21", "1.66 µM"],
  ["Cc1ccc(C(=O)/C=C/c2ccccc2O)c(C)c1", "> 100 µM"],
  ["CC(=O)c1cccc2c1CC1(C2)Cc2ccc3c(c2C1=O)CCC3 (stereo unspecified)", "> 100 µM"]
]}

Exercise: What value of TGI has been reported for the following compound? `CCc1nc2ccccc2c(=O)n1/N=C(\N=Nc1ccc(Cl)cc1)c1ccccc1Cl`
Solution: > 100 µM

Exercise: What value of TGI has been reported for the following compound? `COc1cc(C(=O)O[C@H](C(N)=O)[C@]2(C)CO2)c2ccccc2c1`
Solution: 40 µM

Exercise: What value of TGI has been reported for the following compound? C=C1CC[C@@]2(OC1)OC1C[C@H]3[C@@H]4CC=C5C[C@@H](O)CC(OC6OCC(OC(=O)[C@@H](O)[C@@H](C)CC)C(OC(C)=O)C6OC6OC(C)C(O)C(O)C6O)[C@]5(C)[C@H]4CC[C@]3(C)C1[C@@H]2C (stereo partly specified)
Solution: 4.45 µM

Exercise: What value of TGI has been reported for the following compound? `O=[N+]([O-])c1ccccc1N=Nc1c(O)sc2ccccc12`
Solution: > 100 µM

Exercise: What value of TGI has been reported for the following compound? `O=C(Nc1ccc2nc(-c3ccccc3)cn2c1)Oc1ccccc1`
Solution: > 100 µM

Exercise: What value of TGI has been reported for the following compound? `COc1ccc(-n2cc(-c3cc(OC)c(OC)c(OC)c3)[nH]c2=S)cc1OC`
Solution: > 100 µM

Exercise: What value of TGI has been reported for the following compound? `CCCCCCCCCCCCCCCCOP(=O)(O)Oc1ccc(/C=C\c2ccc(OP(=O)(O)OCCCCCCCCCCCCCCCC)cc2)cc1`
Solution: > 100 µM
